The measurements presented in this section are drawn from patent US20260092074A1.

pIC50 reference
target: human CYP11B1 (Homo sapiens, UniProt P15538)
Sequence (P15538 25-503): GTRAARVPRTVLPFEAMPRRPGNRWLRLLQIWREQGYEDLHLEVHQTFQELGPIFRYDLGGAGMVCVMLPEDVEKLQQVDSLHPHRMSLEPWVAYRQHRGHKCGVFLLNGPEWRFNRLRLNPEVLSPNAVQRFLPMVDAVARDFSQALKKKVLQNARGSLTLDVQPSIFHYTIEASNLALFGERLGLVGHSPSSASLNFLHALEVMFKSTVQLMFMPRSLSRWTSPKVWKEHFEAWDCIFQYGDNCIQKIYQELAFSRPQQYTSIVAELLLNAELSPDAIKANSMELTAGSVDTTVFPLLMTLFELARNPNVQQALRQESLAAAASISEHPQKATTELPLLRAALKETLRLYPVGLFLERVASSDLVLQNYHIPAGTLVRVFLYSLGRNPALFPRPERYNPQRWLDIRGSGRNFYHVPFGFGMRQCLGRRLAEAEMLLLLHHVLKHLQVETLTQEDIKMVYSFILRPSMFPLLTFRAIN
methodNotes: Inhibition of hCYP11B1 in transfected V79 cells
runConditions: hamster V79 cells expressing human CYP11B1; substrate 11-deoxycortisol 200 nM
Scale note: pIC50 = -log10(concentration in M).

Completed entries (count: 8):
molecule: N#Cc1ccc(-c2cncc3c2CCN3S(=O)(=O)c2cccc(C(F)(F)F)c2)cc1
target: human CYP11B1 (Homo sapiens, UniProt P15538)
measuredProperty: pIC50
endpointResult: 9.40

molecule: N#Cc1ccc(-c2cncc3c2OCCN3S(=O)(=O)C2CN(S(=O)(=O)c3cccc(C#N)c3)C2)cc1
target: human CYP11B1 (Homo sapiens, UniProt P15538)
measuredProperty: pIC50
endpointResult: 6.98

molecule: N#Cc1ccc(-c2cncc3c2OCCN3S(=O)(=O)c2cccc([N+](=O)[O-])c2)cc1
target: human CYP11B1 (Homo sapiens, UniProt P15538)
measuredProperty: pIC50
endpointResult: 8.55

molecule: N#Cc1ccc(-c2cncc3c2SCCN3C(=O)c2ccc(Cl)cc2)cc1
target: human CYP11B1 (Homo sapiens, UniProt P15538)
measuredProperty: pIC50
endpointResult: 6.07

molecule: COc1ccc(S(=O)(=O)N2CCOc3c(-c4ccc(C#N)cc4)cncc32)cc1
target: human CYP11B1 (Homo sapiens, UniProt P15538)
measuredProperty: pIC50
endpointResult: 10.70

molecule: N#Cc1ccc(-c2cncc3c2ccn3C(=O)c2ccccc2I)cc1
target: human CYP11B1 (Homo sapiens, UniProt P15538)
measuredProperty: pIC50
endpointResult: 8.30

molecule: O=C(c1ccccc1F)N1CCc2c(-c3cc4ccccc4s3)cncc21
target: human CYP11B1 (Homo sapiens, UniProt P15538)
measuredProperty: pIC50
endpointResult: 5.87

molecule: N#Cc1ccc(S(=O)(=O)N2CCSc3c(-c4cc5ccccc5s4)cncc32)cc1
target: human CYP11B1 (Homo sapiens, UniProt P15538)
measuredProperty: pIC50
endpointResult: 6.21

Entry `N#Cc1ccc(-c2cncc3c2SCCN3S(=O)(=O)c2cccc(C(F)(F)F)c2)cc1` , pIC50 reported as 7.92

Entry `N#Cc1ccc(-c2cncc3c2CCN3C(=O)Cc2ccc(Br)cc2)cc1` , pIC50 reported as 6.91

Entry `N#Cc1ccc(-c2cncc3c2CCN3C(=O)Cc2cccc(Cl)c2)cc1` , pIC50 reported as 7.55

Entry `O=S(=O)(C1CN(C2COC2)C1)N1CCSc2c(-c3cc4cc(Cl)ccc4o3)cncc21` , pIC50 reported as 6.02

Entry `COc1cccc(C(=O)N2CC(S(=O)(=O)N3CCSc4c(-c5ccc(C#N)cc5)cncc43)C2)c1` , pIC50 reported as 7.74

Entry `N#Cc1ccc(C(=O)N2CCSc3c(-c4ccc(C#N)cc4)cncc32)cc1` , pIC50 reported as 5.58

Entry `N#Cc1ccc(-c2cncc3c2SCCN3S(=O)(=O)c2cccc([N+](=O)[O-])c2)cc1` , pIC50 reported as 8.70

Entry `N#Cc1ccc(-c2cncc3c2SCCN3S(=O)(=O)c2ccc(Cl)cc2)cc1` , pIC50 reported as 8.66

Entry `COc1ccc(S(=O)(=O)N2CCSc3c(-c4ccc(F)c(C)c4)cncc32)cc1` , pIC50 reported as 8.27

Entry `N#Cc1ccc(-c2cncc3c2CCN3C(=O)Cc2cccc(C(F)(F)F)c2)cc1` , pIC50 reported as 7.28
